Cited source: patent US11365263B2

test system: MDA-MB-361 DYT2 (human breast carcinoma); test: Cytotoxicity assay for payloads (MTS), MDA-MB-361 DYT2; assay type: cell-based; conditions: 96 h, MDA-MB-361 DYT2 cells, four days incubation, read-out: Free payload potency (IC50), DYT2
Each entry below carries its recorded pIC50.
Just the number, please; pIC50 means minus log10 of the concentration in mol/L.

Here is how some compounds turned out for pIC50.
compound	pIC50
CC(=O)Oc1cc2c(c3c(C)csc13)[C@H](CCl)CN2C(=O)C12C3C4C1C1C2C3C41C(=O)N1C[C@@H](CCl)c2c1cc(OC(C)=O)c1scc(C)c21 (stereo partly shown)	10.10
[2H]C([2H])(CC(=O)N1C[C@@H](CCl)c2c1cc(OC(C)=O)c1scc(C)c21)CC(=O)N1C[C@@H](CCl)c2c1cc(OC(C)=O)c1scc(C)c21	11.70
[2H]C([2H])(CC([2H])([2H])C(=O)N1C[C@@H](CCl)c2c1cc(OC(C)=O)c1scc(C)c21)C(=O)N1C[C@@H](CCl)c2c1cc(OC(C)=O)c1scc(C)c21	11.40

Now consider a different compound.
Using the record for `[2H]C([2H])(C(=O)N1C[C@@H](CCl)c2c1cc(OC(C)=O)c1scc(C)c21)C([2H])([2H])C([2H])([2H])C(=O)N1C[C@@H](CCl)c2c1cc(OC(C)=O)c1scc(C)c21` , state its measured pIC50.
11.70
